Experiment: in vivo
Parameters: species or system mice
Reported Conditions: male, NODSCID 1L2RγKO, mouse, iv, total radioactivity, Salivary uptake
Label T when tissue uptake at 4 h is at or above 2 %ID/g; anything below gets F.

Exercise: I'd appreciate it if you could say whether O=C(O)CCC[C@H](NC(=O)N[C@@H](CCCCNC(=O)[C@H](Cc1c2ccccc2cc2ccccc12)NC(=O)[C@H]1CC[C@H](CNC(=O)[C@H](CCCCNC(=O)CN2CCN(CC(=O)O)CCN(CC(=O)O)CCN(CC(=O)O)CC2)NC(=O)CNC(=O)CCCc2ccc(Cl)cc2)CC1)C(=O)O)C(=O)O [177Lu-HTK03153, metal not drawn] has tissue uptake at 4 h at least equal to 2 %ID/g.
Solution: T

Exercise: I'd appreciate it if you could say whether COc1ccc(CCCC(=O)NCC(=O)N[C@@H](CCCCNC(=O)CN2CCN(CC(=O)O)CCN(CC(=O)O)CCN(CC(=O)O)CC2)C(=O)NC[C@H]2CC[C@H](C(=O)N[C@@H](Cc3c4ccccc4cc4ccccc34)C(=O)NCCCC[C@H](NC(=O)N[C@@H](CCCC(=O)O)C(=O)O)C(=O)O)CC2)cc1 [177Lu-HTK03170, metal not drawn] has tissue uptake at 4 h at least equal to 2 %ID/g.
Solution: F

Exercise: Confirm if tissue uptake at 4 h reported for the compound O=C(O)CCC[C@H](NC(=O)N[C@@H](CCCCNC(=O)[C@H](Cc1c2ccccc2cc2ccccc12)NC(=O)[C@H]1CC[C@H](CNC(=O)CN2CCN(CC(=O)O)CCN(CC(=O)O)CCN(CC(=O)O)CC2)CC1)C(=O)O)C(=O)O [177Lu-HTK03149, metal not drawn] is 2 %ID/g or above.
Solution: F

Exercise: Does tissue uptake at 4 h meet or surpass 2 %ID/g for COc1ccc(CCCC(=O)NCC(=O)N[C@@H](CCCCNC(=O)CN2CCN(CC(=O)O)CCN(CC(=O)O)CCN(CC(=O)O)CC2)C(=O)NC[C@H]2CC[C@H](C(=O)N[C@@H](Cc3c4ccccc4cc4ccccc34)C(=O)NCCCC[C@H](NC(=O)N[C@@H](COCC(=O)O)C(=O)O)C(=O)O)CC2)cc1 [177Lu-HTK04028, metal not drawn] ?
Solution: F

---

Please provide measured tissue uptake at 72 h for the entries that follow.
Experiment: in vivo
Set-up: species or system mice
Reported Conditions: male, NODSCID 1L2RγKO, mouse, iv, total radioactivity, Testes uptake

Exercise: Field request: tissue uptake at 72 h | item: COc1ccc(CCCC(=O)NCC(=O)N[C@@H](CCCCNC(=O)CN2CCN(CC(=O)O)CCN(CC(=O)O)CCN(CC(=O)O)CC2)C(=O)NC[C@H]2CC[C@H](C(=O)N[C@@H](Cc3c4ccccc4cc4ccccc34)C(=O)NCCCC[C@H](NC(=O)N[C@@H](CCCC(=O)O)C(=O)O)C(=O)O)CC2)cc1 [177Lu-HTK03170, metal not drawn]
Solution: 0.24 %ID/g

Exercise: Look up tissue uptake at 72 h: O=C(O)CCC[C@H](NC(=O)N[C@@H](CCCCNC(=O)[C@H](Cc1c2ccccc2cc2ccccc12)NC(=O)[C@H]1CC[C@H](CNC(=O)[C@H](CCCCNC(=O)CN2CCN(CC(=O)O)CCN(CC(=O)O)CCN(CC(=O)O)CC2)NC(=O)CNC(=O)CCCc2ccc(Cl)cc2)CC1)C(=O)O)C(=O)O [177Lu-HTK03153, metal not drawn]
Solution: 1.38 %ID/g

Exercise: Can you share its tissue uptake at 72 h? I mean this compound: COc1ccc(CCCC(=O)NCC(=O)N[C@@H](CCCCNC(=O)CN2CCN(CC(=O)O)CCN(CC(=O)O)CCN(CC(=O)O)CC2)C(=O)NC[C@H]2CC[C@H](C(=O)N[C@@H](Cc3c4ccccc4cc4ccccc34)C(=O)NCCCC[C@H](NC(=O)N[C@@H](COCC(=O)O)C(=O)O)C(=O)O)CC2)cc1 [177Lu-HTK04028, metal not drawn]
Solution: 0.31 %ID/g

Exercise: So what's the measured tissue uptake at 72 h for this one? COc1ccc(CCCC(=O)NCC(=O)N[C@@H](CCCCNC(=O)CN2CCN(CC(=O)O)CCN(CC(=O)O)CCN(CC(=O)O)CC2)C(=O)NC[C@H]2CC[C@H](C(=O)N[C@@H](Cc3c4ccccc4cc4ccccc34)C(=O)NCCCC[C@H](NC(=O)N[C@@H](CSCC(=O)O)C(=O)O)C(=O)O)CC2)cc1 [177Lu-HTK04048, metal not drawn]
Solution: 0.34 %ID/g

Exercise: Quick one: tissue uptake at 72 h of O=C(O)CCC[C@H](NC(=O)N[C@@H](CCCCNC(=O)[C@H](Cc1c2ccccc2cc2ccccc12)NC(=O)[C@H]1CC[C@H](CNC(=O)CN2CCN(CC(=O)O)CCN(CC(=O)O)CCN(CC(=O)O)CC2)CC1)C(=O)O)C(=O)O [177Lu-HTK03149, metal not drawn] ?
Solution: 0.05 %ID/g
